Ref: patent EP4578856A1

# inhibition at 0.03 µM annotations
molecular target: FAK protein (Homo sapiens, UniProt Q05397); test: FAK kinase inhibitory activity, mobility shift assay (MSA, Carna Biosciences); type: biochemical; parameters: GST (N); purchased Carna Biosciences, Inc; host or cells: baculovirus expression system; settings: inhibition rate at 30 nM; reaction time 5 hours
Sequence (Q05397 376-1052): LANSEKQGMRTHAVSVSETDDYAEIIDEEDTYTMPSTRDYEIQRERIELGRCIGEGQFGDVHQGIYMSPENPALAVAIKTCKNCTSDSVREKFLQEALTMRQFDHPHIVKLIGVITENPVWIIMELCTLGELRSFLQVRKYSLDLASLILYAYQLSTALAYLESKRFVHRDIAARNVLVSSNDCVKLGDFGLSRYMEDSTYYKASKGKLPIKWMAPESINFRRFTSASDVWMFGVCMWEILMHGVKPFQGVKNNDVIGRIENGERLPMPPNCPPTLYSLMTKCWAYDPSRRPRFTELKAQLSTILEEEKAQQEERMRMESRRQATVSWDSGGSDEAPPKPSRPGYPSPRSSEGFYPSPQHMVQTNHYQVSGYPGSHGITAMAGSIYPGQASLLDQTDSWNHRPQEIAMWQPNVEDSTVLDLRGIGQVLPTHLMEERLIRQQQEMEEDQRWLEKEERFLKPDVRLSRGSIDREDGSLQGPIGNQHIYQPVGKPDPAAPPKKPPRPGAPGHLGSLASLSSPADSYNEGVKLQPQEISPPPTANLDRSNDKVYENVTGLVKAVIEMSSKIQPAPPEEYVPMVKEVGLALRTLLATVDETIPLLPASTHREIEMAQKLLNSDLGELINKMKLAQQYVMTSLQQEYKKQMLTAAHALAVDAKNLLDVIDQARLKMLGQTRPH

{"MOLECULAR STRING": "COC[C@H]1CN[C@H](C)CN1CC(=O)N1CC(C)(C)c2nc(CN3CCN(CCOCCOCC(=O)Nc4ccc(Nc5ncc(C(F)(F)F)c(NCc6cccc(S(C)(=O)=O)c6)n5)cc4)CC3)c(Cc3ccc(F)cc3)cc21", "OUTCOME MEASURE": "inhibition at 0.03 µM", "TEST VALUE": "50 to 75%"}

Q: Param item = `C[C@@H]1CN(CC(=O)N2CC(C)(C)c3ncc(Cc4ccc(F)cc4)cc32)[C@@H](CN(C)CCOCC(=O)Nc2ccc(Nc3ncc(C(F)(F)F)c(NCc4cccc(S(C)(=O)=O)c4)n3)cc2)CN1` ; retrieve measured inhibition at 0.03 µM.
A: ≥ 75%

Q: Ok, now `C[C@@H]1CN(CC(=O)N2CC(C)(C)c3ncc(Cc4ccc(F)cc4)cc32)[C@@H](CN(C)CCOCCOCCOCC(=O)Nc2ccc(Nc3ncc(C(F)(F)F)c(NCc4cccc(S(C)(=O)=O)c4)n3)cc2)CN1`
A: ≥ 75%

====

Quick record: pIC50, ROCK2 protein (Homo sapiens, UniProt O75116).
pIC50: −log10 of the molar value.

Below, 5 molecules whose answers are already recorded.
{"MOLECULE": "COCCOCCN[C@H](C)c1ccc(C(=O)Nc2ccncc2)cc1 [Ref.Example 10, reference compound]", "TEST VALUE": "5.00 to 5.52"}
{"MOLECULE": "COCCOCCNC[C@@H](C(=O)Nc1ccc2cnccc2c1)c1ccccc1 [Ref.Example 14, reference compound]", "TEST VALUE": "> 7.52"}
{"MOLECULE": "COCCOCCCNC[C@@H](C(=O)Nc1ccc2cnccc2c1)c1ccccc1 [Ref.Example 15, reference compound]", "TEST VALUE": "> 7.52"}
{"MOLECULE": "COCCOCCN[C@H](Cc1cccc(F)c1)C(=O)Nc1ccc(-c2ccncc2)cc1 [Ref.Example 12, reference compound]", "TEST VALUE": "5.52 to 6.52"}
{"MOLECULE": "COCCOCCCN[C@H](C)c1ccc(C(=O)Nc2ccncc2)cc1 [Ref.Example 11, reference compound]", "TEST VALUE": "5.00 to 5.52"}

Now consider the entry below.
Q: Param item = COCCOCCCN[C@H](Cc1cccc(F)c1)C(=O)Nc1ccc(-c2ccncc2)cc1 [Ref.Example 13, reference compound] ; retrieve measured pIC50.
A: 6.52 to 7.52

====

# inhibition at 10 µM annotations
target: ROCK2 protein (Homo sapiens, UniProt O75116); experiment: Degradation inducing activity of ROCK2 protein in HUVEC cells, Western blotting (Simple Western JESS); format: cell-based; parameters: endogenous in cells; host or cells: HUVEC (ATCC CRL-1730); details: HUVEC, 24 h, degradation rate at 10 µM
Sequence (O75116 whole entry): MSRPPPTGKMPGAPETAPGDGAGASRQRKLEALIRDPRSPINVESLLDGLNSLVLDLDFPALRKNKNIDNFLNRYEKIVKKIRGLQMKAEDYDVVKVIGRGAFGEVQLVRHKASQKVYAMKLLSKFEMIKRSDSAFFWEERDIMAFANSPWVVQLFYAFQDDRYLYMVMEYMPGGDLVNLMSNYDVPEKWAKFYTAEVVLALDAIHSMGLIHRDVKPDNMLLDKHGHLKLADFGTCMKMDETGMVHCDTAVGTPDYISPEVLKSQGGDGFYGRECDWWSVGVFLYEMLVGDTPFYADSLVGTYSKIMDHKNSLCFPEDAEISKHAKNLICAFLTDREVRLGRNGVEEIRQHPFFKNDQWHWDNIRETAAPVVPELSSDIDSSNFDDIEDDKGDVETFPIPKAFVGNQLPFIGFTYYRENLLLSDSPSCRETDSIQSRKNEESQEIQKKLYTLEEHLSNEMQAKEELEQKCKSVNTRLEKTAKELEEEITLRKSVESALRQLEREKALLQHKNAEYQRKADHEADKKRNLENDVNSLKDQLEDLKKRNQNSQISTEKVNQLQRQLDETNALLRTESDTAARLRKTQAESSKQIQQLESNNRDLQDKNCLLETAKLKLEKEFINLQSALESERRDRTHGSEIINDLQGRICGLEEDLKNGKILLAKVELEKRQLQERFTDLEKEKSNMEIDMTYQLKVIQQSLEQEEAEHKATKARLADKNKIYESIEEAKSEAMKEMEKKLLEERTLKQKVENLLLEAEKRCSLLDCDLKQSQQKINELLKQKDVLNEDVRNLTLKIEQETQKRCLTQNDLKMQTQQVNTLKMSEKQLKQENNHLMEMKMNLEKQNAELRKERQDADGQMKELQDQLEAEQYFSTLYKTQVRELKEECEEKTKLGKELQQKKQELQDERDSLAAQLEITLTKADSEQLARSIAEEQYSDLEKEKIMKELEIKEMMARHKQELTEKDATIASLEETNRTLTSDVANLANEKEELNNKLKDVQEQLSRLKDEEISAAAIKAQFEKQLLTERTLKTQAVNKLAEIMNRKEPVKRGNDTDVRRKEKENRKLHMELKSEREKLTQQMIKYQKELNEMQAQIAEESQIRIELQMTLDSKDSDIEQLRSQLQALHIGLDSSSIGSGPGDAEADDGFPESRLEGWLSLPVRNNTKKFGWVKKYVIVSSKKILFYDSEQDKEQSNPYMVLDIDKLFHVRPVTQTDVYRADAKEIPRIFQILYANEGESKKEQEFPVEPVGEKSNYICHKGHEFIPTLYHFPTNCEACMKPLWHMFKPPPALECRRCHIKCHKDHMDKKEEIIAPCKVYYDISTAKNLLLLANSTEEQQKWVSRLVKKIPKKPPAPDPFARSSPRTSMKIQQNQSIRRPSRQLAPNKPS

Q: # get_value(readout= inhibition at 10 µM, system= ROCK2 protein (Homo sapiens, UniProt O75116)) for `COC[C@H]1CN[C@H](C)CN1CC(=O)N1CC(C)(C)c2ncc(Cc3ccccc3OCCOCCOCCOCCN[C@H](Cc3cccc(F)c3)C(=O)Nc3ccc(-c4ccncc4)cc3)cc21`
A: ≥ 75%

Q: Ok, now `C[C@@H]1CN(CC(=O)N2CC(C)(C)c3ncc(Cc4ccc(F)cc4)cc32)[C@@H](CN(C)CCOCCOCCOCCN[C@H](Cc2cccc(F)c2)C(=O)Nc2ccc(-c3ccncc3)cc2)CN1`
A: ≥ 75%

Q: Ok, now `C[C@@H]1CN(CC(=O)N2CC(C)(C)c3ncc(Cc4ccc(F)cc4)cc32)[C@@H](CN(C)CCOCCOCCOCCN[C@H](C)c2ccc(C(=O)Nc3ccncc3)cc2)CN1`
A: ≥ 75%

Q: Ok, now `COC[C@H]1CN[C@H](C)CN1CC(=O)N1CC(C)(C)c2nc(CN(C)CCOCCOCCOCCOCCN[C@H](Cc3cccc(F)c3)C(=O)Nc3ccc(-c4ccncc4)cc3)c(Cc3ccc(F)cc3)cc21`
A: ≥ 75%

Q: Ok, now `COC[C@H]1CN[C@H](C)CN1CC(=O)N1CC(C)(C)c2nc(CN(C)CCOCCOCCOCCOCCOCCOCCOCCNC[C@@H](C(=O)Nc3ccc4cnccc4c3)c3ccccc3)c(Cc3ccc(F)cc3)cc21`
A: ≥ 75%

Q: Ok, now `COC[C@H]1CN[C@H](C)CN1CC(=O)N1CC(C)(C)c2ncc(Cc3ccccc3OCCOCCOCCOCCOCCOCCN[C@H](Cc3cccc(F)c3)C(=O)Nc3ccc(-c4ccncc4)cc3)cc21`
A: 50 to 75%

Q: Ok, now `C[C@@H]1CN(CC(=O)N2CC(C)(C)c3ncc(Cc4ccc(F)cc4)cc32)[C@@H](CN(C)CCOCCOCCN[C@H](Cc2cccc(F)c2)C(=O)Nc2ccc(-c3ccncc3)cc2)CN1`
A: ≥ 75%

Q: Ok, now `COC[C@H]1CN[C@H](C)CN1CC(=O)N1CC(C)(C)c2ncc(Cc3ccccc3OCCOCCOCCOCCOCCNC[C@@H](C(=O)Nc3ccc4cnccc4c3)c3ccccc3)cc21`
A: 25 to 50%
